# measured.on: T1, TJP3_3, O95049
# T1 sequence (O95049 375-456, limits assumed, looked up): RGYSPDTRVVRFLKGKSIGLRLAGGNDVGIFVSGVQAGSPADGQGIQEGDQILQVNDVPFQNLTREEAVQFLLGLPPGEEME
# assay.notes: holdup assay
# Parameters: key: below the threshold = too weak to quantify, mostly under pKd 3.1 to 4
# experimental.setup: plain residues with an end cap or a label only (N-terminal biotin on a linker: ado-ado)

| binder | pKd |
| --- | --- |
| DTTVPESEDL [MYOZ2, Q9NPC6] | below the threshold |
| SSALYGESDL [ACTN2, P35609] | below the threshold |
| LRSPRTPSEV [OR10G3, Q8NGC4] | below the threshold |
| IKAIVDLTGL [TRAF2, Q12933] | below the threshold |
| NHSSSPETTA [TRMT13, Q9NUP7] | below the threshold |
| PEYLGLDVPV [ERBB2, P04626] | below the threshold |
| RRISSLESEV [GRIN2C, Q14957] | below the threshold |
| CLREWCDAFL [BANF1, O75531] | 3.86 |
| PAPSSGKDYV [CLDN1, O95832] | 3.55 |
| NLSIEKETKL [ASNSD1, Q9NWL6] | below the threshold |
| RHGSCVETSL [TMEM151B, Q8IW70] | below the threshold |
| VNKSKLLTDV [KCNA1, Q09470] | below the threshold |
| VYPNAKVELV [PDLIM4_iso2, P50479;P50479-1] | below the threshold |
| QHKTQLQTLI [BPIFA2, Q96DR5] | below the threshold |
| PLSPEQPTKL [TRIM50, Q86XT4] | below the threshold |
| FNSYSLTGYV [CLDN2, P57739] | 4.31 |
| QKNRKAQEDL [CES3, Q6UWW8] | below the threshold |
| YYKRPVQEWV [MMP24, Q9Y5R2] | 5 |
| EKKTLIGIKL [GOT1L1, Q8NHS2] | below the threshold |
| TSQESEDTYL [TBC1D10A, Q9BXI6] | below the threshold |
| EVEEFPETSV [TRPV3, Q8NET8] | 3.57 |
| YLEPVLSSEL [ATP2A2, P16615;P16615-3] | below the threshold |
| LPAHHNATRL [SLC34A1, Q06495;Q06495-1] | below the threshold |
| LPHGHSTTRV [NLGN4X, Q8N0W4] | below the threshold |
| GNSVLKSTQF [SLC22A12, Q96S37] | below the threshold |
| VKPQVSESKL [ACOT8, O14734] | below the threshold |
| RRRESYSTTV [EVI5, O60447] | below the threshold |
| QMNQTLPVQV [EPHB3, P54753] | below the threshold |
| SARSRLSSNL [HCN2, Q9UL51] | below the threshold |
| LGRSTPQSEV [DGKH, Q86XP1] | below the threshold |
| PPYRHRNTVV [ERBB4, Q15303] | below the threshold |
| AKPSRISTVV [IQSEC2, Q5JU85] | below the threshold |
